experiment: Pharmacokinetic (PK) analysis in rats; assay type: in vivo, Sprague Dawley (SD) rats; conditions: Sprague-Dawley, rat, plasma, po; SD rats, single intragastric administration, 5 mg/kg; read-out: Mean Residence Time MRT
QUANTITY NAME: MRT (h)
Response body: numeric value in h, unit text excluded.

CO[C@H]1CCN(c2cc(NC(=O)N3CCCc4cc(CN5CCOC5=O)c(C=O)nc43)ncc2C#N)C1 ... 3.36
CO[C@H]1CCN(c2cc(NC(=O)N3CCCc4cc(CN5CCOCC5=O)c(C=O)nc43)ncc2C#N)C1 ... 3.84
CO[C@H]1COCC1Oc1cc(NC(=O)N2CCCc3cc(CN4CCOCC4=O)c(C=O)nc32)ncc1C#N (some centres unmarked) ... 4.17

Consider the additional molecule presented here.
stdin: Note down MRT recorded for COCCNc1cc(NC(=O)N2CCCc3cc(CN4CCCCOC4=O)c(C=O)nc32)ncc1C#N
stdout: 3.5

----------
assay: Pharmacokinetic (PK) analysis in rats; format: in vivo, Sprague Dawley (SD) rats; conditions: Sprague-Dawley, rat, plasma, po; SD rats, single intragastric administration, 5 mg/kg; read-out: Plasma Concentration Cmax
The following molecules are listed with their measured Cmax values.
Response body: numeric value in ng/mL, unit text excluded.

Previously resolved entries follow.
CO[C@@H]1CCCC1Oc1cc(NC(=O)N2CCCc3cc(CN4CCOCC4=O)c(C=O)nc32)ncc1C#N (stereo partly drawn) [Example 16] ... 1600
CO[C@H]1COCC1Nc1cc(NC(=O)N2CCCc3cc(CN4C(=O)OCC4C)c(C=O)nc32)ncc1C#N (stereo partly drawn) [Example 46] ... 1930
COC1CCN(c2cc(NC(=O)N3CCCc4cc(CN5CCOCC5=O)c(C=O)nc43)ncc2C#N)C1 (stereo not drawn) [Example 4] ... 3370
CO[C@@H]1CCN(c2cc(NC(=O)N3CCCc4cc(CN5CCOC5=O)c(C=O)nc43)ncc2C#N)C1 [Example 41] ... 1920
CO[C@@H]1CCN(c2cc(NC(=O)N3CCCc4cc(CN5CCCCOC5=O)c(C=O)nc43)ncc2C#N)C1 [Example 31] ... 3720

stdin: Note down Cmax recorded for CO[C@H]1CCN(c2cc(NC(=O)N3CCCc4cc(CN5CCOCC5=O)c(C=O)nc43)ncc2C#N)C1 [Example 51]
stdout: 1020

stdin: Note down Cmax recorded for CO[C@@H]1CCC1Oc1cc(NC(=O)N2CCCc3cc(CN4CCOCC4=O)c(C=O)nc32)ncc1C#N (stereo partly drawn) [Example 61]
stdout: 2640

stdin: Note down Cmax recorded for N#Cc1cnc(NC(=O)N2CCCc3cc(CN4CCOCC4=O)c(C=O)nc32)cc1S[C@@H]1CCOC1 [Example 56]
stdout: 1640

stdin: Note down Cmax recorded for COCC1(Nc2cc(NC(=O)N3CCCc4cc(CN5CCOCC5=O)c(C=O)nc43)ncc2C#N)CC1 [Example 11]
stdout: 1540

stdin: Note down Cmax recorded for CO[C@@H]1CCCC1Nc1cc(NC(=O)N2CCCc3cc(CN4CCOCC4=O)c(C=O)nc32)ncc1C#N (stereo partly drawn) [Example 1]
stdout: 1140

stdin: Note down Cmax recorded for CO[C@@H]1CCC[C@H]1Nc1cc(NC(=O)N2CCCc3cc(CN4CCOCC4=O)c(C=O)nc32)ncc1C#N [Example 60]
stdout: 1300

stdin: Note down Cmax recorded for COCCNc1cc(NC(=O)N2CCCc3cc(CN4CCN(C5CC5)CC4=O)c(C=O)nc32)ncc1C#N [Example 65]
stdout: 3180
